# assay-procedure: Single dose plasma pharmacokinetics (4 mg/kg i.p.), NCA
# Type: in vivo, Sprague-Dawley rats
# recorded-conditions: male, Sprague-Dawley, rat, plasma, ip, 4 mg/kg, male rats, single dose 4 mg/kg i.p.; read-out: Half-life t1/2, plasma (converted)
measure: half-life

q: Answer with reported half-life of N#Cc1ccc(C(c2ccc(C#N)cc2)n2cncn2)cc1 [letrozole]
a: ~9 h

* * *

# assay-procedure: Single dose plasma pharmacokinetics (4 mg/kg i.p.), NCA
# Format: in vivo, Sprague-Dawley rats
# recorded-conditions: male, Sprague-Dawley, rat, plasma, ip, 4 mg/kg, male rats, single dose 4 mg/kg i.p.; read-out: AUC 0–72, plasma total
measure: AUC(0-t)
Provide the measurement as a number trailed by its unit.

q: Answer with reported AUC(0-t) of N#Cc1ccc(C(c2ccc(C#N)cc2)n2cncn2)cc1
a: 24900 ng·h/mL

Cited source for all entries: paper PMC8018653
